Reference source: PubChem BioAssay (NCI)

# reported growth; entries follow
System: SK-MEL-5 melanoma
Assay Explanation: NCI-60 one-dose screen, 48 h (100 = growth as untreated, 0 = no growth, -100 = all killed)
Protocol Conditions: 10 µM unless noted
About 83,000 compounds went through this panel and 20% of them were active in at least one assay; those are over-represented in the sample as a whole.
Write the value in % as a bare number.

A selection of reference data follows.
{"Molecule": "COC(=O)c1c2c(c(C)[n+]([O-])c1C)C(=O)C=C(NCc1ccc(Br)cc1)C2=O", "Unit Of Measurement": "%", "Reported": -97.5}
{"Molecule": "COc1cc(CNS(=O)(=O)c2ccc(C)cc2)ccc1OCc1cn(-c2ccc(Br)cc2)nn1", "Unit Of Measurement": "%", "Reported": 97.8}
{"Molecule": "CN1CCN(Cc2ccc3c(NNC(=O)c4ccccc4)nc4cc(F)ccc4n23)CC1", "Unit Of Measurement": "%", "Reported": -26.8}
{"Molecule": "OCCOCCN(Cc1ccccn1)Cc1cc(I)cc(I)c1O", "Unit Of Measurement": "%", "Reported": 93.9}
{"Molecule": "CN(CCn1sc(=O)n(Cc2ccccc2)c1=O)Cc1ccc2c(Cl)cc(Cl)c(O)c2n1", "Unit Of Measurement": "%", "Reported": 59.5}
{"Molecule": "COC(=O)CNC(=O)[C@H](Cc1ccccc1)NCc1ccncc1", "Unit Of Measurement": "%", "Reported": 101}
{"Molecule": "CC(C)=CCC[C@](C)(O)[C@H]1CC[C@]2(C)[C@@H]1CC[C@@H]1[C@@]3(C)Cc4nccnc4C(C)(C)[C@@H]3CC[C@]12C", "Unit Of Measurement": "%", "Reported": 65.8}
{"Molecule": "COc1cc(C(=O)n2nc(N3CCN(C)CC3)c3cc(N)ccc32)cc(OC)c1OC", "Unit Of Measurement": "%", "Reported": 27.3}

Lookup: growth / SK-MEL-5 melanoma / CCOC(=O)c1c(C)nc2c(c1N)CC(=O)N2Cc1cc(F)cc(Cl)c1 74.9

Continue with O=C(NNC(=O)c1ccc(-n2cc(-c3ccccc3)nn2)cc1)Nc1ccccc1 100
